Organism: Mus musculus
PROTOCOL_DESCRIPTION: Dose needed to increase the 100% survival of treated animals (mouse), to twice the number of days
Assay type: ADME, organism-based
EXPERIMENTAL_SETUP: in vivo
PARAMETER_MEASURED: ED (mg/kg)
Give bare numbers, in mg/kg.

## Input Tell me the measured ED of `CC(C)NC(=N)NC(=N)NOCCCOc1ccc(Cl)cc1` , please.
## Output 26

## Input Would you mind telling me what ED value was observed for `CC(C)/N=C(N)/N=C(\N)NOCCCOc1ccc(Br)cc1` ?
## Output 64

## Input Recorded ED of `Cc1ccc(OCCCON/C(N)=N/C(N)=N/C(C)C)cc1.Cl` , please.
## Output 265

## Input Tell me the measured ED of `Cc1ccc(OCCCON/C(N)=N/C(N)=N/C(C)C)c(C)c1.Cl` , please.
## Output 170

## Input Reported ED, compound `CC(C)/N=C(N)/N=C(\N)NOCCCOc1ccc(F)c(F)c1.Cl` : ____
## Output 27

## Input Can you share its ED? I mean this compound: `CC(C)/N=C(N)/N=C(\N)NOCCCOc1cccc(C(F)(F)F)c1.Cl`
## Output 73

Record ED for all entries; do not skip any.
1. Cc1ccc(SCCCON/C(N)=N/C(N)=N/C(C)C)cc1.Cl
2. CC(C)/N=C(N)/N=C(\N)NOCCCOc1ccccc1.Cl
3. CC(C)/N=C(N)/N=C(\N)NOCCCOc1cc(F)cc(F)c1F.Cl

## Output
1. 117
2. 165
3. 107

----------
Organism: Mus musculus
PROTOCOL_DESCRIPTION: Dose needed to increase the 100% survival of treated animals (mouse), to twice the number of days
Type: ADME, organism-based
EXPERIMENTAL_SETUP: in vivo
Define the label as YES when ED is strictly less than 200 mg/kg and as NO in all remaining cases.

## Input Field: below-cutoff. Rule: recorded ED strictly less than 200 mg/kg. Subject: `CC(C)/N=C(N)/N=C(\N)NOCCCSc1ccc(Cl)cc1`
## Output YES

## Input Item `CC(C)/N=C(N)/N=C(\N)NOCCCOc1cc(F)c(F)cc1F.Cl` : ED beneath 200 mg/kg, strictly?
## Output YES

## Input Is 200 mg/kg strictly greater than the molecule's reported ED? molecule: `Cc1cc(OCCCON/C(N)=N/C(N)=N/C(C)C)ccc1C(C)C.Cl`
## Output YES

## Input Is ED of `CC(C)/N=C(N)/N=C(\N)NOCCCSc1ccc(F)cc1.Cl` strictly below 200 mg/kg?
## Output YES

## Input Consider `CCc1ccc(OCCCO/N=C(N)/N=C(\N)NC(C)C)cc1.Cl` . Does its ED lie strictly below 200 mg/kg?
## Output YES

Further cases:
## Input Criterion: ED strictly below 200 mg/kg. Is it met by `CC(C)/N=C(N)/N=C(\N)NOCCCOc1ccc(C(C)(C)C)cc1.Cl` ?
## Output NO

## Input Lab log: compare recorded ED with 200 mg/kg; is it strictly lower for `CC(C)NC(=N)NC(=N)NOCCCOc1cc(Cl)c(Cl)cc1Cl` ?
## Output YES

## Input Please check: ED for `CC(C)/N=C(N)/N=C(\N)NOCCCOc1cccc2ccccc12.Cl` , strictly under 200 mg/kg or not?
## Output YES

## Input Strictly below 200 mg/kg: is that where ED of `N=C(NOCCCOc1cc(Cl)c(Cl)cc1Cl)NC(=N)NC1CCCCC1` sits?
## Output NO
